Measured values drawn from paper PMC5540273 for this set.

Test system: CSNK1E
Settings: concentration: 1 μM, replicates: in singlicate; n = 1;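 further: KINOMEscan kinase panel screen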
%Inh values by entry

- molecule: "Cl.Nc1ncnc2occ(-c3ccc(NC(=O)Nc4cc(C(F)(F)F)ccc4F)cc3)c12 [SB-707548]"
  %Inh / %: 25
- molecule: "NS(=O)(=O)CCc1cccc(Nc2nccc(-c3c(-c4cccc(NC(=O)c5c(F)cccc5F)c4)nn4ccccc34)n2)c1 [GSK336735]"
  %Inh / %: 90.4
- molecule: "Cc1nnc(-c2ccc3ncc(-c4ccc(S(C)=O)cc4)n3c2)o1 (stereo not drawn)"
  %Inh / %: 0

---

Test system: ABL1-phosphorylated
Conditions: concentration: 1 μM, replicates: in singlicate; n = 1

- molecule: "O=C(NOCC1CC1)c1ccc(F)c(F)c1Nc1ccc(I)cc1Cl"
  %Inh (%): 0
- molecule: "Cc1ccc(NC(=O)c2ccnc(N3CCN(C)CC3)c2)cc1-c1ccc(C(=O)NCC2CC2)cc1 [GW775604]"
  %Inh (%): 0
- molecule: "Cc1ccc(C(=O)NCC(N)=O)cc1-n1c(C)cc(OCc2ccc(F)cc2F)c(Br)c1=O"
  %Inh (%): 33
- molecule: "N#Cc1ccc(-c2cc(-c3c[nH]nc3-c3ccccn3)ccn2)cc1 [GW693028]"
  %Inh (%): 29
- molecule: "O=c1cc(N2CCOCC2)nc2n(Cc3cccc4ccccc34)ccn12 [GSK2333389]"
  %Inh (%): 0
- molecule: "c1ccc(-c2n[nH]cc2-c2ccnc3ccccc23)nc1 [GW271431]"
  %Inh (%): 1
- molecule: "Fc1ccc(-c2nn3c(OCC(F)(F)F)cccc3c2-c2ccncc2)cc1 [GW514784]"
  %Inh (%): 0
- molecule: "Cl.Oc1cccc(Nc2ccnc3cc(-c4ccncc4)ccc23)c1 [GW494601]"
  %Inh (%): 99.9
- molecule: "COc1cc2ncn(-c3cc(OCc4sccc4Cl)c(C(N)=O)s3)c2cc1OC [GSK448459]"
  %Inh (%): 3
- molecule: "O=c1cc(N2CCOCC2)nc2n(Cc3cccc(F)c3)ccn12 [GSK2297430]"
  %Inh (%): 0

---

Tested on: PKAC-beta
Construct: gene PRKACB
Details: concentration: 1 μM, replicates: in singlicate; n = 1
%Inh values by entry
measure-name: %Inh (%)

- compound: "O=c1cc(N2CCOCC2)nc2n(Cc3cccc4ccccc34)ccn12"
  unit-spec: "%"
  value-measured: 8
- compound: "NCC(NC(=O)c1cc(-c2cn[nH]c2)c(-c2ccnc3[nH]ccc23)s1)c1ccccc1.O=C(O)C(F)(F)F.O=C(O)C(F)(F)F (stereo not drawn)"
  unit-spec: "%"
  value-measured: 98
- compound: "CN(C(=O)c1ccc(-c2cc(-c3c[nH]nc3-c3ccccn3)ccn2)cc1)C1CCOCC1"
  unit-spec: "%"
  value-measured: 0
- compound: "O=C(NCCCN1CCOCC1)c1cccc(Nc2nccc(Nc3ccc(Oc4ccccc4)cc3)n2)c1"
  unit-spec: "%"
  value-measured: 0
- compound: "CSc1ccc(-c2cc3ncnc(SCC(=O)O)c3s2)cc1"
  unit-spec: "%"
  value-measured: 0
- compound: "O=c1cc(N2CCOCC2)nc2n(Cc3cccc(C(F)(F)F)c3)ccn12"
  unit-spec: "%"
  value-measured: 8
- compound: "Cc1c(Cn2c(C)nn3c(=O)cc(N4CCOC(C)C4)nc23)cccc1C(F)(F)F (stereo not drawn)"
  unit-spec: "%"
  value-measured: 17
- compound: "COc1cc2ncn(-c3cc(OCc4sccc4Cl)c(C(N)=O)s3)c2cc1OC"
  unit-spec: "%"
  value-measured: 0
- compound: "Cl.Oc1cccc(Nc2ccnc3cc(-c4ccncc4)ccc23)c1"
  unit-spec: "%"
  value-measured: 0
- compound: "O=C(NOCC1CC1)c1ccc(F)c(F)c1Nc1ccc(I)cc1Cl"
  unit-spec: "%"
  value-measured: 0
- compound: "C[C@@H](Oc1cc(-n2cnc3ccc(NC(=O)NC(C)(C)C)cc32)sc1C(N)=O)c1ccccc1Cl"
  unit-spec: "%"
  value-measured: 0
- compound: "Cc1nnc(-c2ccc3ncc(-c4ccc(S(C)=O)cc4)n3c2)o1 (stereo not drawn)"
  unit-spec: "%"
  value-measured: 8
- compound: "Cc1ccc(NC(=O)c2ccnc(N3CCN(C)CC3)c2)cc1-c1ccc(C(=O)NCC2CC2)cc1"
  unit-spec: "%"
  value-measured: 0
- compound: "COc1ccc(Nc2ncc(C#N)c(Nc3ccccc3C(N)=O)n2)cc1N1CCN(C)CC1.Cl"
  unit-spec: "%"
  value-measured: 76
- compound: "NS(=O)(=O)c1cccc(-c2ccc3nccc(-c4cccc(S(N)(=O)=O)c4)c3c2)c1"
  unit-spec: "%"
  value-measured: 0

---

Tested on: SRPK2
Details: concentration: 1 μM, replicates: in singlicate; n = 1
measure-name: %Inh

- compound: "CCn1cnc2c(N)ncnc21 [GW345098]"
  system-name: "SRPK2"
  value-measured: "19%"
- compound: "CSc1ccc(-c2cc3ncnc(SCC(=O)O)c3s2)cc1"
  system-name: "SRPK2"
  value-measured: "100%"
- compound: "Cl.Oc1cccc(Nc2ccnc3cc(-c4ccncc4)ccc23)c1 [GW494601]"
  system-name: "SRPK2"
  value-measured: "0%"
- compound: "Cc1c(Cn2c(C)nn3c(=O)cc(N4CCOC(C)C4)nc23)cccc1C(F)(F)F (stereo not shown) [GSK2344444]"
  system-name: "SRPK2"
  value-measured: "0%"
- compound: "Cl.Nc1ncnc2occ(-c3ccc(NC(=O)Nc4cc(C(F)(F)F)ccc4F)cc3)c12 [SB-707548]"
  system-name: "SRPK2"
  value-measured: "40%"
- compound: "COc1ccc(Nc2ncc(C#N)c(Nc3ccccc3C(N)=O)n2)cc1N1CCN(C)CC1.Cl [GSK1558669]"
  system-name: "SRPK2"
  value-measured: "66%"
- compound: "Nc1nc(-c2ccc3c(N)n[nH]c3c2)cc(N2CCCC2)n1 [GSK2227430]"
  system-name: "SRPK2"
  value-measured: "0%"
- compound: "Cc1ccc(C(=O)NCC(N)=O)cc1-n1c(C)cc(OCc2ccc(F)cc2F)c(Br)c1=O"
  system-name: "SRPK2"
  value-measured: "0%"
- compound: "Fc1ccc(-c2ncn(CCCN3CCOCC3)c2-c2cccnc2)cc1 [SB-211743]"
  system-name: "SRPK2"
  value-measured: "0%"
- compound: "CC(C)(C)n1cnc2c(N)ncnc21 [SKF-97359]"
  system-name: "SRPK2"
  value-measured: "36%"

---

Tested on: TAK1
Construct: gene MAP3K7
Details: concentration: 1 μM, replicates: in singlicate; n = 1
measure-name: %Inh

- compound: "CC(C)Oc1ccc2c(-c3ccnc(Nc4ccc(N5CCN(C)CC5)cc4)n3)cnn2n1"
  value-measured: "56%"
- compound: "[2H]C([2H])(c1cccc(C(F)(F)F)c1C)n1ccn2c(=O)nc(N3CCOCC3)cc12"
  value-measured: "0%"
- compound: "NS(=O)(=O)c1cccc(-c2ccc3nccc(-c4cccc(S(N)(=O)=O)c4)c3c2)c1"
  value-measured: "6%"
- compound: "CN(C(=O)c1ccc(-c2cc(-c3c[nH]nc3-c3ccccn3)ccn2)cc1)C1CCOCC1"
  value-measured: "24%"
- compound: "O=C(NOCC1CC1)c1ccc(F)c(F)c1Nc1ccc(I)cc1Cl"
  value-measured: "11%"
- compound: "Cc1nnc(-c2ccc3ncc(-c4ccc(S(C)=O)cc4)n3c2)o1 (stereo not shown)"
  value-measured: "8%"
- compound: "O=C(NCCNc1ccnc(Nc2ccc(F)cc2)n1)Nc1ccccc1F"
  value-measured: "0%"
- compound: "c1ccc(-c2cc(-c3c[nH]nc3-c3ccccn3)ccn2)cc1"
  value-measured: "16%"
- compound: "COc1ccc(S(=O)(=O)NC2CCN(c3cc(C)nc(Nc4cccc(C#N)c4)n3)CC2)cc1.O=C(O)C(F)(F)F"
  value-measured: "0%"
- compound: "COCCNC(=O)c1ccc(-c2cc(C(=O)NC3CC3)cc(F)c2C)cc1"
  value-measured: "14%"

---

System: PFTAIRE2
Details: concentration: 1 μM, replicates: in singlicate; n = 1
%Inh values by entry

- compound: "Cn1cc(-c2ccc3c(c2)CCN3C(=O)Cc2ccccc2Cl)c2c(N)ncnc21"
  system-name: "PFTAIRE2"
  %Inh / %: 14
- compound: "Cc1cn2c(=O)cc(N3CCOCC3)nc2n1Cc1cccc(Cl)c1Cl"
  system-name: "PFTAIRE2"
  %Inh / %: 22
- compound: "CNc1ncnc2[nH]ncc12"
  system-name: "PFTAIRE2"
  %Inh / %: 12
- compound: "COc1ccc(COc2cc(-n3cnc4ccccc43)sc2C(N)=O)cc1"
  system-name: "PFTAIRE2"
  %Inh / %: 17
- compound: "c1ccc(-c2n[nH]cc2-c2ccnc3ccccc23)nc1"
  system-name: "PFTAIRE2"
  %Inh / %: 36
- compound: "O=C(NCCCN1CCOCC1)c1cccc(Nc2nccc(Nc3ccc(Oc4ccccc4)cc3)n2)c1"
  system-name: "PFTAIRE2"
  %Inh / %: 18
- compound: "CN1c2ccc(CNc3ccc(F)cc3)cc2-c2c(cnn2C)S1(=O)=O"
  system-name: "PFTAIRE2"
  %Inh / %: 0
- compound: "Cl.Nc1ncnc2occ(-c3ccc(NC(=O)Nc4cc(C(F)(F)F)ccc4F)cc3)c12"
  system-name: "PFTAIRE2"
  %Inh / %: 68
- compound: "O=C(Nc1cccc(-c2nn3ncccc3c2-c2ccnc(Nc3cccc(C(F)(F)F)c3)n2)c1)c1c(F)cccc1F"
  system-name: "PFTAIRE2"
  %Inh / %: 0
- compound: "Nc1nc(-c2ccc3c(N)n[nH]c3c2)cc(N2CCCC2)n1"
  system-name: "PFTAIRE2"
  %Inh / %: 6
- compound: "CC(C)(C)n1cnc2c(N)ncnc21"
  system-name: "PFTAIRE2"
  %Inh / %: 8
- compound: "[2H]C([2H])(c1cccc(C(F)(F)F)c1C)n1ccn2c(=O)nc(N3CCOCC3)cc12"
  system-name: "PFTAIRE2"
  %Inh / %: 0
- compound: "Nc1nccc(-c2c(-c3ccc(F)cc3)ncn2C2CCN(CC(F)(F)F)CC2)n1"
  system-name: "PFTAIRE2"
  %Inh / %: 23
- compound: "Cc1cccc(-c2nc(-c3ccc(S(C)(=O)=O)cc3)sc2-c2ccncc2)c1"
  system-name: "PFTAIRE2"
  %Inh / %: 10
- compound: "CCc1nc(-c2cccc(C)c2)c(-c2ccnc(NCc3ccccc3)c2)s1"
  system-name: "PFTAIRE2"
  %Inh / %: 7
- compound: "COc1ccc(Nc2ncc(C#N)c(Nc3ccccc3C(N)=O)n2)cc1N1CCN(C)CC1.Cl"
  system-name: "PFTAIRE2"
  %Inh / %: 97.6
- compound: "O=C(Nc1n[nH]c2cc(-c3cccc(F)c3)ccc12)C1CC1"
  system-name: "PFTAIRE2"
  %Inh / %: 26
- compound: "N#Cc1ccc(-c2cc(-c3c[nH]nc3-c3ccccn3)ccn2)cc1"
  system-name: "PFTAIRE2"
  %Inh / %: 0
- compound: "COc1ccc(Nc2nccc(N3CCC(NC(=O)Nc4cccc(C(C)=O)c4)C3)n2)cc1 (stereo not shown)"
  system-name: "PFTAIRE2"
  %Inh / %: 9
- compound: "COc1ccc(Nc2nccc(N3CCC(NC(=O)Nc4cc(C)ccc4C)C3)n2)cc1 (stereo not shown)"
  system-name: "PFTAIRE2"
  %Inh / %: 13
- compound: "O=C1NC(=O)C(N2CCc3ccccc32)=C1c1cccc(Cl)c1"
  system-name: "PFTAIRE2"
  %Inh / %: 0
- compound: "COc1cc(Nc2nccc(N3CCC(NC(=O)c4cccc(NC(C)=O)c4)C3)n2)cc(OC)c1OC (stereo not shown)"
  system-name: "PFTAIRE2"
  %Inh / %: 18
- compound: "CSc1ccc(-c2cc3ncnc(SCC(=O)O)c3s2)cc1"
  system-name: "PFTAIRE2"
  %Inh / %: 12
- compound: "CC(=O)Nc1ccc(COc2ccc(Nc3ccnc4cc(-c5ccccn5)ccc34)cc2)cc1.Cl"
  system-name: "PFTAIRE2"
  %Inh / %: 26
- compound: "Cc1c(Cn2c(C)nn3c(=O)cc(N4CCOC(C)C4)nc23)cccc1C(F)(F)F (stereo not shown)"
  system-name: "PFTAIRE2"
  %Inh / %: 16
- compound: "Cc1cccc(-c2nc(Nc3ccc4ncsc4c3)c3ccccc3n2)n1"
  system-name: "PFTAIRE2"
  %Inh / %: 0
- compound: "Cc1cccc(Cn2ccn3c(=O)cc(N4CCOCC4)nc23)c1"
  system-name: "PFTAIRE2"
  %Inh / %: 27
- compound: "Cc1ccc(C(=O)NCC(N)=O)cc1-n1c(C)cc(OCc2ccc(F)cc2F)c(Br)c1=O"
  system-name: "PFTAIRE2"
  %Inh / %: 10
